# assay-details: activity coefficient (dimensionless); of the first substance listed, at infinite dilution; xn = mol fraction of the nth substance listed
# condition-label: 338.15 K; 100 kPa; Liquid; Chromatography; x1 = 0
parameter: activity coefficient

[[record]]
compound = "c1ccsc1 [thiophene] + CCCC[n+]1ccc(C#N)cc1.O=S(=O)([N-]S(=O)(=O)C(F)(F)F)C(F)(F)F"
parameter = "activity coefficient"
value_reported = 1.05

[[record]]
compound = "CCCO [propan-1-ol] + CCCC[n+]1ccc(C#N)cc1.O=S(=O)([N-]S(=O)(=O)C(F)(F)F)C(F)(F)F"
parameter = "activity coefficient"
value_reported = 1.98

[[record]]
compound = "CCOC(C)=O [ethyl acetate] + CCCC[n+]1ccc(C#N)cc1.O=S(=O)([N-]S(=O)(=O)C(F)(F)F)C(F)(F)F"
parameter = "activity coefficient"
value_reported = 0.995

[[record]]
compound = "C1CCCC1 [cyclopentane] + CCCC[n+]1ccc(C#N)cc1.O=S(=O)([N-]S(=O)(=O)C(F)(F)F)C(F)(F)F"
parameter = "activity coefficient"
value_reported = 9.97

[[record]]
compound = "CCCCCO [pentan-1-ol] + CCCC[n+]1ccc(C#N)cc1.O=S(=O)([N-]S(=O)(=O)C(F)(F)F)C(F)(F)F"
parameter = "activity coefficient"
value_reported = 3.15

[[record]]
compound = "C=CCCCCC [1-heptene] + CCCC[n+]1ccc(C#N)cc1.O=S(=O)([N-]S(=O)(=O)C(F)(F)F)C(F)(F)F"
parameter = "activity coefficient"
value_reported = 19.5

[[record]]
compound = "C1=CCCCC1 [cyclohexene] + CCCC[n+]1ccc(C#N)cc1.O=S(=O)([N-]S(=O)(=O)C(F)(F)F)C(F)(F)F"
parameter = "activity coefficient"
value_reported = 7.19

